Test system: NIH3T3 cells overexpressing TK
assay remarks: MTT cell viability, TK overexpressing cells vs parental line
Type: cell-based, mouse
condition context: TK high-expressing cells / parental cell line, 3 to 4 days
value type: logarithmic value of ratio of IC40 values

Here is how some compounds turned out for logarithmic value of ratio of IC40 values.
So what's the measured logarithmic value of ratio of IC40 values for this one? `CO[C@H]1[C@@H](OC)C[C@H](C)[C@@H](OC)C2=CC(=O)C=C(NC(=O)/C(C)=C/C=C\[C@H](OC)[C@@H](OC(N)=O)/C(C)=C/[C@@H]1C)C2=O` 0.00

One more compound: C[C@@H]1C[C@@H]([C@H](O)CC2CC(=O)NC(=O)C2)C(=O)[C@@H](C)C1 [CHX, cycloheximide] −0.13

---
Query: logarithmic value of ratio of IC40 values; subject: O=[As]O [NaAsO2, sodium arsenite] 0.18

Another compound: COC(=O)[C@@]1(O)C[C@H]2O[C@]1(C)n1c3ccccc3c3c4c(c5c6ccccc6n2c5c31)C(=O)NC4 [K252a] 0.23
